The values you see were collected from ChEMBL document CHEMBL4145654.

molecular target: Bromodomain-containing protein 2 (Homo sapiens, UniProt P25440); test: Binding affinity to human BRD2 bromodomain 2 (E348 to D455 residues) expressed in bacterial expression system by BROMOscan assay
Sequence (P25440 whole entry, the tested form may be a part): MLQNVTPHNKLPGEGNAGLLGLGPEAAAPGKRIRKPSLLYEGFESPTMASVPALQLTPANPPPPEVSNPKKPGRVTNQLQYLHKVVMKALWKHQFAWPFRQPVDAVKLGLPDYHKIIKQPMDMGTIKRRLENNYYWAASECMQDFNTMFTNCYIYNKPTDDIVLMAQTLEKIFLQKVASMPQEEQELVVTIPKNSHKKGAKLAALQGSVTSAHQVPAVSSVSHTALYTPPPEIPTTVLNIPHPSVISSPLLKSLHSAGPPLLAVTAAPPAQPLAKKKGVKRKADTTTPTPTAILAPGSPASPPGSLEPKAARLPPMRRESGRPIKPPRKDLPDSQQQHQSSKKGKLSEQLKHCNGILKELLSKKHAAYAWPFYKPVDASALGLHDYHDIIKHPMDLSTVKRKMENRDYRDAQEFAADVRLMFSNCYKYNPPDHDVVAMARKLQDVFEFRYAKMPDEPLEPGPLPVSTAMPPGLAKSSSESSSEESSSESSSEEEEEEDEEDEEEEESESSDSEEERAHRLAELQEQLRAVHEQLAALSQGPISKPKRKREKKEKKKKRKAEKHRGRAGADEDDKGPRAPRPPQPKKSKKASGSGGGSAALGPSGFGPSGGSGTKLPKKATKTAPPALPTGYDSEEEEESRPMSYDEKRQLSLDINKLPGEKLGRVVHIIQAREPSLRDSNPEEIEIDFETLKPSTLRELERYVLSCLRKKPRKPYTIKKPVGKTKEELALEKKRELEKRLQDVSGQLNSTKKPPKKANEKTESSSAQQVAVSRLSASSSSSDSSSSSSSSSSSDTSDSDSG
assay-metric: pKd
pKd here: minus log base 10 of the concentration, concentration in moles per litre.

Give pKd; test system Bromodomain-containing protein 2 (Homo sapiens, UniProt P25440); compound "COc1cc2c(cc1-c1c(C)noc1C)[nH]c1nc(C)nc(Nc3cc(C4CC4)nn3C)c12" 9.22

* * *

Molecular target: Bromodomain-containing protein 7 (Homo sapiens, UniProt Q9NPI1)
Sequence (Q9NPI1 whole entry): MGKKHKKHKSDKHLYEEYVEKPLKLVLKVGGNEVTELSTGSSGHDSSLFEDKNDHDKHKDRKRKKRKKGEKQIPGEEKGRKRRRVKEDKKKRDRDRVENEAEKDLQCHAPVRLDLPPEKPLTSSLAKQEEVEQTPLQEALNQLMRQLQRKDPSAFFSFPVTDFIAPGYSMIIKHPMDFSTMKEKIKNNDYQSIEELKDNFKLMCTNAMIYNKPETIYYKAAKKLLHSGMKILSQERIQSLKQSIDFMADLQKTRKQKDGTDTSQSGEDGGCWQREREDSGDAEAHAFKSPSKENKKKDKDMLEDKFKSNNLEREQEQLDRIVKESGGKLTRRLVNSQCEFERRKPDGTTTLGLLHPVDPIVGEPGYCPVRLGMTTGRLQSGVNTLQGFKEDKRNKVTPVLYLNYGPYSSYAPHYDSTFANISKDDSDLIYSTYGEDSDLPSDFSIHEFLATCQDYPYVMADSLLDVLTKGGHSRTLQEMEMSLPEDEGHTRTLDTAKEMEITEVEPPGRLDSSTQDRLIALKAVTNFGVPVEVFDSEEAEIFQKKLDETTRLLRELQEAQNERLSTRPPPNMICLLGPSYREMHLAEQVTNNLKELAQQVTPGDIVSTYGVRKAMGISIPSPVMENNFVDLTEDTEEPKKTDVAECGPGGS
Assay: Binding affinity to human BRD7 (L125 to R254 residues) expressed in bacterial expression system by BROMOScan assay
pKd: −log10 of the molar value.
assay-metric: pKd

Report measured pKd; entry is "COc1cc2c(cc1-c1c(C)noc1C)[nH]c1nc(C)nc(Nc3cc(C4CC4)nn3C)c12" < 5.30

* * *

target: Bromodomain-containing protein 2 (Homo sapiens, UniProt P25440); experiment: Binding affinity to human BRD2 bromodomain 1 (K71 to N194 residues) expressed in bacterial expression system by BROMOscan assay
assay-metric: pKd
pKd is defined as minus the log10 of a concentration measured in mol/L.

Query pKd for "COc1cc2c(cc1-c1c(C)noc1C)[nH]c1nc(C)nc(Nc3cc(C4CC4)nn3C)c12" 8.96

* * *

target: Transcription initiation factor TFIID subunit 1 (Homo sapiens, UniProt P21675); test: Binding affinity to human TAF1 bromodomain 2 (D1521 to D1656 residues) expressed in bacterial expression system by BROMOScan assay
Sequence (P21675 whole entry, the tested form may be a part): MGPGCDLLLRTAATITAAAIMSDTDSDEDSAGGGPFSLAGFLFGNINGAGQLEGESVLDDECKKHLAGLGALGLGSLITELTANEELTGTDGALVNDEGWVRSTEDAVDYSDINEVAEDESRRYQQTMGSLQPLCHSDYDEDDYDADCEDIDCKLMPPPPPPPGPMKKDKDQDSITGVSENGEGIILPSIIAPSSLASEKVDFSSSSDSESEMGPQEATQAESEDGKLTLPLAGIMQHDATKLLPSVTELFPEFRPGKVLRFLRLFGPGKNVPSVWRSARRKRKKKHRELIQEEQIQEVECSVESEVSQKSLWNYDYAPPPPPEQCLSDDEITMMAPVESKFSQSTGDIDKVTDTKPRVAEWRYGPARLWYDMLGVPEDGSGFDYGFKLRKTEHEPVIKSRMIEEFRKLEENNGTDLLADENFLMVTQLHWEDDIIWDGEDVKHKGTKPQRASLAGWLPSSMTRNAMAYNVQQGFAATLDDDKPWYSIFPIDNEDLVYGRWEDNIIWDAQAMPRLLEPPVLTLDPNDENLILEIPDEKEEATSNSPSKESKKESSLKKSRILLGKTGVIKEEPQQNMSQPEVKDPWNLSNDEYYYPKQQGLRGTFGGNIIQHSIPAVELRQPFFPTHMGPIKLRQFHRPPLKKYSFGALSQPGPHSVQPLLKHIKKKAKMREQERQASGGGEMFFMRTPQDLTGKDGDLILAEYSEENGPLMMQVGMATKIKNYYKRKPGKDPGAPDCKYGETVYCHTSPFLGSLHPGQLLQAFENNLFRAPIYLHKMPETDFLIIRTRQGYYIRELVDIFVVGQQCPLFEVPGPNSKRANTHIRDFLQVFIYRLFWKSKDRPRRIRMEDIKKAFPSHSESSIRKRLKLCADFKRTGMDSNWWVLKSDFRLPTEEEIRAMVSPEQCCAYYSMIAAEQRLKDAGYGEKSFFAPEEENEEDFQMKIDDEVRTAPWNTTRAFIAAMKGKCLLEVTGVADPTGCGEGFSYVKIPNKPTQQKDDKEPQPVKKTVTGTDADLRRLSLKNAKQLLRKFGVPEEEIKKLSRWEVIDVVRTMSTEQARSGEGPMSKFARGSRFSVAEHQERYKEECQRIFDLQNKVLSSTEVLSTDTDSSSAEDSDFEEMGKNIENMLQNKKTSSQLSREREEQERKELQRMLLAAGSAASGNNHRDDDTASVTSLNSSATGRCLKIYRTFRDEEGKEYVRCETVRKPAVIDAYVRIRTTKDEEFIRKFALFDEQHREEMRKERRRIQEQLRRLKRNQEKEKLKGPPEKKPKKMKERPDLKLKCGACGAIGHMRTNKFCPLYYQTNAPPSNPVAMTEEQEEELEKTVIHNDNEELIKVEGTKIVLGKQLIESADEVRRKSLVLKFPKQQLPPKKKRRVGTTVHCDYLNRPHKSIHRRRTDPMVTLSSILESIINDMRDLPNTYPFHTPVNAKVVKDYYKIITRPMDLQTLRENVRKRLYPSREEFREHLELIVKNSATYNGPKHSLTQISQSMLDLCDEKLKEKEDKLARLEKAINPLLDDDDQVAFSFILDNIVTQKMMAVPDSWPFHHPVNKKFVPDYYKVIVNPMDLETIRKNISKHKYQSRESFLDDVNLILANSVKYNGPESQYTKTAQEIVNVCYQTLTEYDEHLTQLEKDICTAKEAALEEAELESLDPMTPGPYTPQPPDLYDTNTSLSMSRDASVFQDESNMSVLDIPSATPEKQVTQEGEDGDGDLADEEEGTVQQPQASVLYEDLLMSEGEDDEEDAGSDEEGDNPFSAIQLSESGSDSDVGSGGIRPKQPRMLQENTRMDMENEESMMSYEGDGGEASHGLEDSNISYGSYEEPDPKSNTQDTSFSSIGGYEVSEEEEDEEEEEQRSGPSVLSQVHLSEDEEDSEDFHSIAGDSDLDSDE
assay-metric: Kd

// fetch Kd for "COc1cc2c(cc1-c1c(C)noc1C)[nH]c1nc(C)nc(Nc3cc(C4CC4)nn3C)c12" ; system: Transcription initiation factor TFIID subunit 1 (Homo sapiens, UniProt P21675) > 5 µM

* * *

target: Bromodomain and PHD finger-containing protein 3 (Homo sapiens, UniProt Q9ULD4); experiment: Binding affinity to human BRPF3 (E588 to G701 residues) expressed in bacterial expression system by BROMOScan assay
Sequence (Q9ULD4 whole entry, the tested form may be a part): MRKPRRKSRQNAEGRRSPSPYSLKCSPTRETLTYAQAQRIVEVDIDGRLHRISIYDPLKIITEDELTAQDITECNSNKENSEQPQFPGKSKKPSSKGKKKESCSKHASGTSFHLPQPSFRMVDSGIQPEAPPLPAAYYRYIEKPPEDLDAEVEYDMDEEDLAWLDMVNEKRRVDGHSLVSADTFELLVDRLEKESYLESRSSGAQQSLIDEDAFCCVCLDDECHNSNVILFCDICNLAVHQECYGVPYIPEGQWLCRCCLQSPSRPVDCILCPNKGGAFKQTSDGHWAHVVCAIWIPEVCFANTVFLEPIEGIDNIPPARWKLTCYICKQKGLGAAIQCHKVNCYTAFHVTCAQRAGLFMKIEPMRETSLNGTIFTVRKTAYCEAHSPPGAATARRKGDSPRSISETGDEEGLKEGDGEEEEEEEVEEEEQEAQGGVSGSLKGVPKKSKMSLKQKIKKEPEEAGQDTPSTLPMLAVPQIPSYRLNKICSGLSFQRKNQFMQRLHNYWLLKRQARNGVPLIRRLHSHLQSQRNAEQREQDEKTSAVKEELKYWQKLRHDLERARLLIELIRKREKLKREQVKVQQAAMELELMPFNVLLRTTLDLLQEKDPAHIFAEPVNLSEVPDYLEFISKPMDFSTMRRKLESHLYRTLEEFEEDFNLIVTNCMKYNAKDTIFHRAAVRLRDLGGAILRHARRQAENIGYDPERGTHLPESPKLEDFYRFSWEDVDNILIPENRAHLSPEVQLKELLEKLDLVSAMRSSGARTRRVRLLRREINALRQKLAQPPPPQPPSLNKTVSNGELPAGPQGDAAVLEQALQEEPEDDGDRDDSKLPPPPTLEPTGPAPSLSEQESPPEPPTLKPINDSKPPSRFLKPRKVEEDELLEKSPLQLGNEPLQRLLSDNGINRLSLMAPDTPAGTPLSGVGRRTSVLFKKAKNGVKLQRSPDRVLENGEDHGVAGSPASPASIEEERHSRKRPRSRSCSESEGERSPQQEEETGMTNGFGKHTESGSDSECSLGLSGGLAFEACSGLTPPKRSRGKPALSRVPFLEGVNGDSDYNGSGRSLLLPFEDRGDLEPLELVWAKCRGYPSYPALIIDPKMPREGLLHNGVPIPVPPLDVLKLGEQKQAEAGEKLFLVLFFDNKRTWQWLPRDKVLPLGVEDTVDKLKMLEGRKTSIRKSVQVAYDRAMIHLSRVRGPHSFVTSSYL
assay-metric: Kd

Respond only with Kd recorded for "COc1cc2c(cc1-c1c(C)noc1C)[nH]c1nc(C)nc(Nc3cc(C4CC4)nn3C)c12" > 5 µM
